B1: library; numbered along this chain (parent)
chain: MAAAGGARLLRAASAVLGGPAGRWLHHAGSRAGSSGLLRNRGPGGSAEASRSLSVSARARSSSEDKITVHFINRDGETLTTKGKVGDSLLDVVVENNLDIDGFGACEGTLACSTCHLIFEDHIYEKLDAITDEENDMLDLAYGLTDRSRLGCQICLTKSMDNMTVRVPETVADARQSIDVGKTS

# Variants of: B1
# assay.procedure: scaled log2 fold change in cell abundance, elesclomol vs control (0 = silent mean, 1 = nonsense mean) (scaled log2 ratio); higher = higher viability under elesclomol (loss of FDX1 cuproptosis function);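 note: variant abundance is its share of total variant reads in each endpoint sample, from next-generation sequencing of the integrated ORF PCR-amplified out of genomic DNA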
# test.parameters: with ABC1 FDX1 KO; elesclomol 5 nM; glucose 10 mM; 14 days
quantity: scaled log2 fold change

1) T164P 0.508
2) I100A 0.162
3) H70G 0.373
4) V94W 0.0681
5) N96Y -0.25
6) L140M 0.393
7) D99V 0.0908
8) T78M -0.54
9) S30E 0.181
10) G33K 0.0454
11) I100D 0.409
12) V165N 0.812
13) K182Y 0.0751
14) E95L -0.168
15) S61K -0.0816
16) D128E 0.267
17) A28G 0.336
18) N73T -0.183
19) S56E 0.234
20) L140S -0.172
21) E133P -0.087
22) K82A 0.109

Values from the supplement of paper PMC12855868
